Numbers sourced from patent US20240270853A1.

Target: T1, Recombinant mouse DDR2 ECD-Fc (R&D systems, Cat. No. 7479-DR-050) (mouse, UniProt Q62371 22-399, biotinylated)
T1 construct: Bought protein; not shown: Fc part of the bought fusion protein, not described
T1 sequence: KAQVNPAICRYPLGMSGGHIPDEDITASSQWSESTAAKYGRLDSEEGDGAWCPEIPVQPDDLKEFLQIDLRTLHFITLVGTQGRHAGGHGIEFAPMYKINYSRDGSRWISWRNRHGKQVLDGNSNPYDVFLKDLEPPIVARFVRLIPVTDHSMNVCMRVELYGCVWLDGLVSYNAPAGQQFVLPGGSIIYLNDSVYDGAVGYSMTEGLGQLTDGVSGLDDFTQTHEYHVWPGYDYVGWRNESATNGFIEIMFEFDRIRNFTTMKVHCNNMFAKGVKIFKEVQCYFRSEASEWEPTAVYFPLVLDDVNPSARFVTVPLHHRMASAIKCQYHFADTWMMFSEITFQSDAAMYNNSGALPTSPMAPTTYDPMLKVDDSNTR
Assay: Octet tandem binning on captured mouse DDR2 ECD-Fc; competitor Ab1 (bound first) DAB0093
Under this convention, TRUE denotes Octet response of Ab2 strictly below 1 and FALSE denotes Octet response of Ab2 at or above 1.

DAB0065 (antibody, V domains shown, Variable regions from immunized rabbits) VH: QSVEESGGRLVTPGTPLTLTCTVSGFSLSTSAMSWVRQAPGKGLEWIGMITYGGSGSTWYASWANGRFTISKTSTTVTLKMTSPTTEDTASYFCARVYGTIGSNFYSIYSFNLWGQGTLVTVSS VL: AAVLTQTPSPVSAAVGGTVSISCQSSKSVYNSNYLSWYQQKPGQPPKLLIYYTSALASGVSSRFKGSGSGTRFTLTISDVQCDDAATYYCAGGYSSSSDNGFGGGTKVEIK : FALSE

Ask | Lab log: compare recorded Octet response of Ab2 with 1; is it strictly lower for DAB0060 (antibody, V domains shown, Variable regions from immunized rabbits) VH: QSVEESGGRLVTPGTALTLTCTASGFSLSSYDMSWVRQAPGEGLEWIGTIFTEGSTSCASWVKGRFTISRTSTTVDLKITSPTTEDTATYFCVRGTTSNRLWGQGTLVTVSS VL: DVVMTQTPASVEAVVGATVTIRCQASESITNYLSWYQQKPGQPPKVLIYYASTLESGVPSRFKGSGSGTQFTLTISDLECADAATYYCQSNYFSSSYSYGNTFGGGTKVEIK ?
Reply | TRUE

Ask | Quick check: Octet response of Ab2 of DAB0094 (antibody, V domains shown, Variable regions from immunized rabbits) VH: QSVEESGGRLVTPGTPLTLTCTVSGFSLSSYSVAWVRQAPGKGLEWIGYISYSGSTYYASWVNGRFTISKTSTTVDLKMTSLTASDTATYFCARDPGYSRDLWGQGTLVTVSS VL: DVVMTQTPSSVSEPVGGTVTIKCQASQSIGSYLSWYQQKPGQPPKLLIYRASTLASGVSSRFKGSGSGTEFTLTINGLECADAAIYYCQSSYVGVSHGSFGGGTKVEIK under 1?
Reply | FALSE

Ask | Report whether reported Octet response of Ab2 is lower than 1 (strictly) for DAB0045 (antibody, V domains shown, Variable regions from immunized rabbits) VH: QSVEESGGRLVTPGTPLTLTCTVSGFSLSSYSMGWVRQAPGKGLEYIGVINTSDSAYYASWAKGRFTISRTSTTVDLKMTSLTTEDTATYFCARAIGYYGSGWGACYFNLWGQGTLVTVSS VL: AIKMTQTPSSVSAAVGGTVTVNCQASEDIKSYLAWYQQKPGQPPKLLIYSASTLASGVSSRFKGSGSGTQFTLTISDLECADAATYYCQSYYGTSTTGEYNAFGGGTKVEIK
Reply | FALSE

Ask | Would you kindly verify if Octet response of Ab2 of DAB0069 (antibody, V domains shown, Variable regions from immunized rabbits) VH: QSLEESGGRLVTPGTPLTLTCTASGFSLSNYYMQWVRQAPGKGLEWIGIVYPGSSAYYANWAKGRFTISKTSTTVDLKMTSLTTEDTATYFCAGSSNSVYSFNLWGQGTLVTVSS VL: AYDMTQTPSSVSAAVGGTVTIKCQASESIYRSLAWYQQKPGQPPKLLIYSASTLTSGVSSRFKGSGSGTEFTLTISDLECADAGTYYCQQGGSFSNIVNTFGGGTKVEIK is strictly less than 1?
Reply | FALSE

Ask | Bench note: check whether DAB0048 (antibody, V domains shown, Variable regions from immunized rabbits) VH: QSVEESGGRLITPGTPLTLTCTASGFSLSIYYMIWVRQAPGKGLEWIGYIWSGSTTDYASWAKGRFTISKTSTTVDLKITSPTTEDTATYFCARVYAGYGYGSDLWGQGTLVTVSS VL: AAVLTQTPSPVSAAVGGTVSISCQSSQSVYNNNWLAWYQQKPGQPPKLLIYSASTLASGVPSRFKGSGSGTQFTLTISDVQCDDAATYYCAGGYSTNSDKNAFGGGTKVEIK shows Octet response of Ab2 below 1
Reply | TRUE
